These data points were gathered from patent US9351955B2.

# key: entry, value: EC50
# assay-target: CFTR G551D mutant (Homo sapiens, UniProt P13569, G551D)
# Construct: expressed in transfected cells; host or cells: HEK293 (reverse transfection with plasmids)
# Sequence (P13569 whole entry G551D): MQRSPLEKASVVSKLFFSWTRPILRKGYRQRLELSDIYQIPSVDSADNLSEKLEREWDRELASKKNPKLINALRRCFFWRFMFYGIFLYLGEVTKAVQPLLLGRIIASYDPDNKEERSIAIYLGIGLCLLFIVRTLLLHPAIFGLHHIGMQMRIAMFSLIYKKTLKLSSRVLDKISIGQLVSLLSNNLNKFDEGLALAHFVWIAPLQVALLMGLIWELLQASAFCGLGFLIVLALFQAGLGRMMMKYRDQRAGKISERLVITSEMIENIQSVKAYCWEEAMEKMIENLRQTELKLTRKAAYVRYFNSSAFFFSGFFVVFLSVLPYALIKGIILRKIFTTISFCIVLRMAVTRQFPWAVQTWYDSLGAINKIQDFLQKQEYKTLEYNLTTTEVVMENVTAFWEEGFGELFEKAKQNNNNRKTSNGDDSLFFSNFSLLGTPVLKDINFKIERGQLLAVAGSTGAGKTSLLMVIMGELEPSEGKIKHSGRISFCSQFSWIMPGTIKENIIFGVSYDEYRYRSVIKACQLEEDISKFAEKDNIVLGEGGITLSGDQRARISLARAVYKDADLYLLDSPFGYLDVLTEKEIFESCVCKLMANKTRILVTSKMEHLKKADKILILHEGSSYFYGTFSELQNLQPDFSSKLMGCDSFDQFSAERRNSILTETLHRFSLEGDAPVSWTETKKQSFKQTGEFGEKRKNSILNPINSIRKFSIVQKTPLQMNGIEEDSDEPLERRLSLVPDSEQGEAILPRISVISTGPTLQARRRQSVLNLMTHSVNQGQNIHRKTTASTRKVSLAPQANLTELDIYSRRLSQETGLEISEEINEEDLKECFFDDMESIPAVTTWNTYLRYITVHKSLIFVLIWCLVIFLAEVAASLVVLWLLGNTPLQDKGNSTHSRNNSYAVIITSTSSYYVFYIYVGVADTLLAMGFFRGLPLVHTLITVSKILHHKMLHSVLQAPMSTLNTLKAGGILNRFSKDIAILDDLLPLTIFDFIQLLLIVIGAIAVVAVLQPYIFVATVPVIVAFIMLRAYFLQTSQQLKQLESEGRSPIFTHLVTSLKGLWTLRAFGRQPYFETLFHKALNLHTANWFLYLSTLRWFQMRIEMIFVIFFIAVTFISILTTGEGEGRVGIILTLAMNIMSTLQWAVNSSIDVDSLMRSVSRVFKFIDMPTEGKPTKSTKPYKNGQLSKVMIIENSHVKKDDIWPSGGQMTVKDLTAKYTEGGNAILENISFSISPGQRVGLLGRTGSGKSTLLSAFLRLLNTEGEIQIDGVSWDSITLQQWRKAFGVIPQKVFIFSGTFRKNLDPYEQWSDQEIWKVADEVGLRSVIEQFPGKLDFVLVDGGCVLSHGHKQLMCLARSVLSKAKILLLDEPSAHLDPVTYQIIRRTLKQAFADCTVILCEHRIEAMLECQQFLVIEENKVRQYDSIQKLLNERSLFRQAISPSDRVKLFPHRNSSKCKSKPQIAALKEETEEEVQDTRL
# assay-explanation: YFP-halide influx assay for the CFTR-G551D mutation (HEK293 cells)
# Type: cell-based
# applied-conditions: HEK293 cells expressing CFTR G551D and YFP reporter; forskolin 10.67 μM; read-out: EC50 measured by YFP-halide influx assay for the CFTR-G551D
readout: EC50 (nM)

compound: CC1(C)Cc2c(sc(NC(=O)C(CO)CC3CC3)c2C(N)=O)C(C)(C)O1 (single isomer, unassigned) [Compound 97]
assay-target: CFTR G551D mutant (Homo sapiens, UniProt P13569, G551D)
data-value: 2780
//
compound: CC1(C)Cc2c(sc(NC(=O)C(O)C3CC3)c2C(N)=O)C(C)(C)O1 (centres unmarked) [Compound 60]
assay-target: CFTR G551D mutant (Homo sapiens, UniProt P13569, G551D)
data-value: 6660
//
compound: CC1(C)Cc2c(sc(NC(=O)C3(CO)CC3)c2C(N)=O)C(C)(C)O1 [Compound 9]
assay-target: CFTR G551D mutant (Homo sapiens, UniProt P13569, G551D)
data-value: 1000
//
compound: CC1(C)Cc2c(sc(NC(=O)c3n[nH]cc3C3=CCOCC3)c2C(N)=O)C(C)(C)O1 [Compound 45]
assay-target: CFTR G551D mutant (Homo sapiens, UniProt P13569, G551D)
data-value: 1140
//
compound: CC(O)C1(C(=O)Nc2sc3c(c2C(N)=O)CC(C)(C)OC3(C)C)CC1 (centres unmarked) [Compound 79]
assay-target: CFTR G551D mutant (Homo sapiens, UniProt P13569, G551D)
data-value: 3330
//
compound: CC(O)C1(C(=O)Nc2sc3c(c2C(N)=O)CC(C)(C)OC3(C)C)CC1 (centres unmarked) [Compound 78]
assay-target: CFTR G551D mutant (Homo sapiens, UniProt P13569, G551D)
data-value: 3350
//
compound: CC1(C)Cc2c(sc(NC(=O)c3cnco3)c2C(N)=O)C(C)(C)O1 [Compound 136]
assay-target: CFTR G551D mutant (Homo sapiens, UniProt P13569, G551D)
data-value: 2530
//
compound: CC1(C)Cc2c(sc(NC(=O)c3ccccc3O)c2C(N)=O)C(C)(C)O1 [Compound 3]
assay-target: CFTR G551D mutant (Homo sapiens, UniProt P13569, G551D)
data-value: 162
//
compound: Cc1cnc(C(=O)Nc2sc3c(c2C(N)=O)CC(C)(C)OC3(C)C)cn1 [Compound 141]
assay-target: CFTR G551D mutant (Homo sapiens, UniProt P13569, G551D)
data-value: 1620
//
compound: CC1(C)Cc2c(sc(NC(=O)C3CC(F)(F)C3)c2C(N)=O)C(C)(C)O1 [Compound 47]
assay-target: CFTR G551D mutant (Homo sapiens, UniProt P13569, G551D)
data-value: 4710
//
compound: CC1(C)Cc2c(sc(NC(=O)c3n[nH]cc3Br)c2C(N)=O)C(C)(C)O1 [Compound 33]
assay-target: CFTR G551D mutant (Homo sapiens, UniProt P13569, G551D)
data-value: 92
//
compound: CC(C)(C)CC(O)C(=O)Nc1sc2c(c1C(N)=O)CC(C)(C)OC2(C)C (single isomer, unassigned) [Compound 110]
assay-target: CFTR G551D mutant (Homo sapiens, UniProt P13569, G551D)
data-value: 209
//
compound: CC1(C)Cc2c(sc(NC(=O)c3ccn(C(F)F)n3)c2C(N)=O)C(C)(C)O1 [Compound 114]
assay-target: CFTR G551D mutant (Homo sapiens, UniProt P13569, G551D)
data-value: 1710
//
compound: CC1(C)Cc2c(sc(NC(=O)c3n[nH]cc3C#N)c2C(N)=O)C(C)(C)O1 [Compound 73]
assay-target: CFTR G551D mutant (Homo sapiens, UniProt P13569, G551D)
data-value: 570
//
compound: COCCOc1c[nH]nc1C(=O)Nc1sc2c(c1C(N)=O)CC(C)(C)OC2(C)C [Compound 100]
assay-target: CFTR G551D mutant (Homo sapiens, UniProt P13569, G551D)
data-value: 2860
//
compound: Cc1cc(C(=O)Nc2sc3c(c2C(N)=O)CC(C)(C)OC3(C)C)[nH]n1 [Compound 11]
assay-target: CFTR G551D mutant (Homo sapiens, UniProt P13569, G551D)
data-value: 590
//
compound: CC1(C)Cc2c(sc(NC(=O)c3cc(C(C)(C)C)[nH]n3)c2C(N)=O)C(C)(C)O1 [Compound 16]
assay-target: CFTR G551D mutant (Homo sapiens, UniProt P13569, G551D)
data-value: 5250
